Data provenance is the supplement of paper PMC10126150.

- Tested on: ATP;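 note: ATP exposure 15 min at 22 °C before imaging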
- assay.overview: switch fluorescence ratio, 500 uM ATP over buffer (Cy3 cluster intensity, sum of 5 cycles each) (fold (ratio)); higher = stronger signal-on switching upon ATP binding; sequences stand for … in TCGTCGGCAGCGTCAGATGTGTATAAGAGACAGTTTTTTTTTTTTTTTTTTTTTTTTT…TC
- reported.conditions: aptamer strand: ATP DNA aptamer (quencher-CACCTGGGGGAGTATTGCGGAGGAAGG + anchor), 100 nM annealed; ATP concentration: 500 uM
readout.type: switch fluorescence ratio

sequence.data: CTAGACCAGG
reported.result: 1.01
--
sequence.data: ATTTGAATA
reported.result: 0.984
--
sequence.data: CATGGTATGT
reported.result: 1.01
--
sequence.data: AACGGCAGTG
reported.result: 1.03
--
sequence.data: TTGGGCATCA
reported.result: 1
--
sequence.data: CTTGGGGGTC
reported.result: 0.989
--
sequence.data: TTGGAAGGTT
reported.result: 1.32
--
sequence.data: ATTTGGGAAG
reported.result: 1.01
--
sequence.data: CTGATGCGCG
reported.result: 1
--
sequence.data: AATTTATTTT
reported.result: 0.991
--
sequence.data: TTATGGCCTA
reported.result: 1.01
--
sequence.data: CACTGGGGCA
reported.result: 1.1
--
sequence.data: GCGGTTAAGG
reported.result: 0.958
--
sequence.data: GGGGGCCGGT
reported.result: 1.01
--
sequence.data: ATTAAGGAGG
reported.result: 0.99
--
sequence.data: GCCAGGCACT
reported.result: 1
--
sequence.data: CAGGAGTGAG
reported.result: 1.01
--
sequence.data: AAAAGGCGGT
reported.result: 1.01
--
sequence.data: CTTGCGGGGA
reported.result: 1.04
--
sequence.data: GACAATTCGG
reported.result: 1.01
--
sequence.data: CGGTCGACGA
reported.result: 1.01
--
sequence.data: TGTACTGGGG
reported.result: 1
--
sequence.data: TAGCCTAGGT
reported.result: 1.02
--
sequence.data: GTCGTCTTAC
reported.result: 1.05
--
sequence.data: TGATAATATT
reported.result: 0.992
--
sequence.data: AGGGGGTAGC
reported.result: 0.992
--
sequence.data: ATACTCTTAT
reported.result: 1.03
--
sequence.data: TTGGAGTGGG
reported.result: 0.987
--
sequence.data: GGGACAAGAT
reported.result: 0.999
--
sequence.data: CGATTTGGGC
reported.result: 0.982
--
sequence.data: CGAGGCTCGT
reported.result: 1.02
--
sequence.data: GGTGGCGTTA
reported.result: 0.999
--
sequence.data: GTGTAGAAAT
reported.result: 0.983
--
sequence.data: TTTGCACAGC
reported.result: 0.997
--
sequence.data: AGTTTATTAT
reported.result: 1.02
--
sequence.data: GATTGGCCCG
reported.result: 1.11
--
sequence.data: CAAGGGTTGT
reported.result: 0.992
--
sequence.data: GTAATGGGGG
reported.result: 1.09
--
sequence.data: ATCACCGCGC
reported.result: 1.59
--
sequence.data: TGTAAGGGGT
reported.result: 1.06
--
sequence.data: ATAGCTGTTA
reported.result: 0.978
--
sequence.data: TGGAGGAGGA
reported.result: 0.982
--
sequence.data: TATTGCTTCA
reported.result: 1.03
--
sequence.data: GGGATGCGG
reported.result: 0.961
--
sequence.data: TGGGATTAGG
reported.result: 0.969
--
sequence.data: ATAACTGCGG
reported.result: 1.02
--
sequence.data: CGTGGGCGGT
reported.result: 0.981
--
sequence.data: GTAACAGGGT
reported.result: 0.999
--
sequence.data: ATTTAGGCGT
reported.result: 1
--
sequence.data: GGGTGCCGGT
reported.result: 1.01
--
sequence.data: AGATGAATGT
reported.result: 0.987
--
sequence.data: CTAGGCTCAA
reported.result: 1
--
sequence.data: CGCGGGGGGA
reported.result: 1.03
--
sequence.data: AGGTTTTTCG
reported.result: 1.03
--
sequence.data: AATTTGACGT
reported.result: 0.981
--
sequence.data: TTACAGTGGA
reported.result: 1.01
--
sequence.data: AATGTAATCA
reported.result: 0.997
--
sequence.data: ATTTGACTTA
reported.result: 1.03
--
sequence.data: AGCGGTCTGG
reported.result: 1
--
sequence.data: AGGGCGCCCG
reported.result: 0.988
--
sequence.data: TGAAGTTCGC
reported.result: 0.969
--
sequence.data: CTACTTAGGG
reported.result: 1.03
--
sequence.data: CTAATGGAGC
reported.result: 0.98
--
sequence.data: ATACTTATTT
reported.result: 1.03
--
sequence.data: AAGGGTTTTT
reported.result: 0.994
--
sequence.data: CGGTGTATTT
reported.result: 0.955
--
sequence.data: TAATGGTCCG
reported.result: 1.03
--
sequence.data: TTTTGTGATT
reported.result: 0.984
--
sequence.data: TTCGGGGGTA
reported.result: 0.97
--
sequence.data: GGGTGAGGTT
reported.result: 0.997
--
sequence.data: CTGGGGGAAG
reported.result: 0.985
--
sequence.data: GCTGAATAAT
reported.result: 1.01
--
sequence.data: TCAGTTGGAA
reported.result: 0.977
--
sequence.data: GACGGCTATG
reported.result: 1
--
sequence.data: TCATATGTTG
reported.result: 1.02
--
sequence.data: TGTGGGGAAG
reported.result: 0.989
--
sequence.data: TTAGTATTCT
reported.result: 0.992
--
sequence.data: CACATCATAT
reported.result: 1.04
--
sequence.data: CGTAAAGGGA
reported.result: 0.987
--
sequence.data: CCGAAATTTA
reported.result: 1.19
--
sequence.data: TCGGGGATGA
reported.result: 1.07
--
sequence.data: TACTCACTGT
reported.result: 1.22
--
sequence.data: TTAAGTGGGC
reported.result: 1.12
--
sequence.data: CCATTTACGT
reported.result: 1.04
--
sequence.data: TCCAGAAGGC
reported.result: 1.09
--
sequence.data: TTAGGTAGTT
reported.result: 0.971
